meta.source: patent US12281086B2

# Tested on: S. aureus
# protocol_summary: Anti-microbial activity, inhibition zone, S. aureus; also: test concentration or dose not given here
# Assay type: cell-based
# experimental_context: S. aureus
# Lookup of reported Inhibition Zone(mm ± SD) S. aureus keyed by entry

chemical_structure | Inhibition Zone(mm ± SD) S. aureus / mm
Oc1ccc(C=Nc2nccs2)cc1 | 10.3
O=[N+]([O-])c1ccccc1C=Nc1nccs1 | 10.6
COc1ccc(C=Nc2nccs2)c(OC)c1 | 13

----------
# Tested on: B. subtilis
# protocol_summary: Anti-microbial activity, inhibition zone, B. subtilis; also: test concentration or dose not given here
# Assay type: cell-based
# experimental_context: Bacillus (B. subtilis)
reported_metric: Inhibition Zone(mm ± SD) Bacillus

compound | reported_metric | result
Cc1[nH]c2ccccc2c1C=Nc1nccs1 [Compound 18] | Inhibition Zone(mm ± SD) Bacillus | 10 ± 0.2 mm
Oc1ccc(C=Nc2nccs2)cc1 [Compound 12, 4-((thiazol-2-ylimino)methyl)phenol] | Inhibition Zone(mm ± SD) Bacillus | Nil
Clc1ccc(C=Nc2nccs2)cc1 [Compound 10, N-(4-chlorobenzylidene)thiazol-2-amine] | Inhibition Zone(mm ± SD) Bacillus | Nil
COc1ccccc1C=Nc1nccs1 [Compound 15, N-(2-methoxybenzylidene)thiazol-2-amine] | Inhibition Zone(mm ± SD) Bacillus | Nil
CC1=NNC(=O)C1N=Nc1nccs1 (centres unmarked) [Compound 6] | Inhibition Zone(mm ± SD) Bacillus | Nil

----------
# Lookup of reported Inhibition Zone(mm ± SD) E. coli keyed by entry
# System: E. coli
# protocol_summary: Anti-microbial activity, inhibition zone, E. coli; also: test concentration or dose not given here
# Assay type: cell-based
# experimental_context: E. coli
reported_metric: Inhibition Zone(mm ± SD) E. coli (mm)

molecule | output_unit | result_number
CC1=NN=C(C)C1N=Nc1nccs1 [Compound 8] | mm | 20.6
Oc1ccc(C=Nc2nccs2)cc1 [Compound 12, 4-((thiazol-2-ylimino)methyl)phenol] | mm | 13.3
NC1=NNC(=O)C1N=Nc1nccs1 (stereo not shown) [Compound 7] | mm | 16
COc1cccc(C=Nc2nccs2)c1OC [Compound 17] | mm | 10.95
CC1=NNC(=O)C1N=Nc1nccs1 (stereo not shown) [Compound 6] | mm | 22
COc1ccc(C=Nc2nccs2)c(OC)c1 [Compound 16] | mm | 13
ClN=Nc1nccs1 [Compound 2, 2-(Chlorodiazenyl)Thiazole] | mm | 10.15
Cc1[nH]c2ccccc2c1C=Nc1nccs1 [Compound 18] | mm | 16.2
COc1ccccc1C=Nc1nccs1 [Compound 15, N-(2-methoxybenzylidene)thiazol-2-amine] | mm | 12.6
O=[N+]([O-])c1ccccc1C=Nc1nccs1 [Compound 11, N-(2-nitrobenzylidene)thiazol-2-amine] | mm | 12.3

----------
# Tested on: B. subtilis
# protocol_summary: Anti-microbial activity, inhibition zone, B. subtilis; also: test concentration or dose not given here
# Format: cell-based
# experimental_context: Bacillus (B. subtilis)
# Protocol: All synthesized compounds were tested for their antimicrobial activities against five types of microorganisms, including gram-negative and positive bacteria and fungi. The gram-negative bacteria include E. coli and P. aeruginosa, while B. subtilis and S. aureus represented the gram-positive bacteria. C. albicans was the fungus used in the screening. […] In addition, the antibacterial activity of the Schiff bases seems to be insensitive to the position and the nature of the substituents. […]

molecule | tgt | Inhibition Zone(mm ± SD) Bacillus / mm
O=[N+]([O-])c1ccccc1C=Nc1nccs1 | B. subtilis | 8.6
NC1=NNC(=O)C1N=Nc1nccs1 (stereo not shown) | B. subtilis | 8.6
CC1=NN=C(C)C1N=Nc1nccs1 | B. subtilis | 10.6
Oc1ccccc1C=Nc1nccs1 | B. subtilis | 11.3
COc1ccc(C=Nc2nccs2)c(OC)c1 | B. subtilis | 12.3
COc1ccc(C=Nc2nccs2)cc1 | B. subtilis | 10.3
